tested on: Staphylococcus aureus; assay: Antibacterial activity against methicillin resistant Staphylococcus aureus NCTC 10442 by microbroth dilution assay; type: functional
Parameter Measured: MIC (µg/mL)
Could you give me the number in µg/mL? Just the number is fine.

Requested field: MIC. Item: CCCCCCCN1c2ccccc2Sc2ccc(OCC(=O)N[C@@H](CCCNC(=N)N)C(=O)N[C@@H](CCCNC(=N)N)C(=O)N[C@@H](CCCNC(=N)N)C(=O)OC)cc21
0.78

Next up: CCCCCCCN1c2ccccc2Sc2ccc(OCC(=O)N[C@@H](CCCNC(=N)N)C(=O)N[C@@H](CCCNC(=N)N)C(N)=O)cc21
1.56

Next up: CN[C@H](CC(C)C)C(=O)N[C@H]1C(=O)N[C@@H](CC(N)=O)C(=O)N[C@H]2C(=O)N[C@H]3C(=O)N[C@H](C(=O)N[C@H](C(=O)O)c4cc(O)cc(O)c4-c4cc3ccc4O)[C@H](O)c3ccc(c(Cl)c3)Oc3cc2cc(c3O[C@@H]2O[C@H](CO)[C@@H](O)[C@H](O)[C@H]2O[C@H]2C[C@](C)(N)[C@H](O)[C@H](C)O2)Oc2ccc(cc2Cl)[C@H]1O
1.56

---

tested on: Staphylococcus aureus; assay: Antibacterial activity against methicillin resistant Staphylococcus aureus NCTC 10442 by microbroth dilution assay; assay type: functional
Parameter Measured: MIC (µg/mL)
Could you give me the number in µg/mL? Just the number is fine.

// lookup MIC | system=Staphylococcus aureus | key= CCCCCCCCCN1c2ccccc2Sc2ccc(OCC(=O)N[C@@H](CCCNC(=N)N)C(=O)N[C@@H](CCCNC(=N)N)C(N)=O)cc21
0.78

Next up: CCCCCOc1ccc2c(c1)N(CCCCN)c1ccccc1S2
3.12

Next up: CCCCCOc1ccc2c(c1)N(CCCCN(CC)CC)c1ccccc1S2
3.12

Next up: CCCCCOc1ccc2c(c1)N(CCCCCCN)c1ccccc1S2
1.56

---

assay: Selectivity index, ratio of CC50 for cytotoxicity against HEK293 cells to MIC for antibacterial activity against Staphylococcus aureus ATCC 29213; format: toxicity, cell-based; details: human, read-out: Selectivity Index
Parameter Measured: selectivity ratio
Respond with the number and no other words.

Requested field: selectivity ratio. Item: CCCCCCCN1c2ccccc2Sc2ccc(OCC(=O)N[C@@H](CCCNC(=N)N)C(=O)N[C@@H](CCCNC(=N)N)C(N)=O)cc21
8

---

experiment: Cytotoxicity against HEK293 cells assessed as cell survival rate at 6.25 ug/ml by CCK-8 assay relative to control; type: toxicity, cell-based; settings: human, at 6.25 µg/mL, read-out: Activity
Parameter Measured: viability at 6.25 ug/ml (%)
Could you give me the number in %? Just the number is fine.

Requested field: viability at 6.25 ug/ml. Item: CCCCCCCN1c2ccccc2Sc2ccc(OCC(=O)N[C@@H](CCCNC(=N)N)C(=O)N[C@@H](CCCNC(=N)N)C(N)=O)cc21
87.7

---

For each record, write down the corresponding log10(MIC).
system: Staphylococcus aureus; experiment: Antibacterial activity against Staphylococcus aureus ATCC 29213 by microbroth dilution assay; assay type: functional
Note the log scale: values are log10 of MIC expressed in µg/mL.

// lookup log10(MIC) | system=Staphylococcus aureus | key= CCCCCOc1ccc2c(c1)N(CCCCCCCCN)c1ccccc1S2
0.49

Next up: CCCCCCCN1c2ccccc2Sc2ccc(OCC(=O)N[C@@H](CCCNC(=N)N)C(=O)N[C@@H](CCCNC(=N)N)C(=O)N[C@@H](CCCNC(=N)N)C(=O)OC)cc21
-0.11

Next up: CCCCCOc1ccc2c(c1)N(CCCCCCNC(=N)N)c1ccccc1S2
0.19

Next up: CCCCCCCCCOc1ccc2c(c1)N(CCCCNC(=N)N)c1ccccc1S2
0.49

Next up: CCCCCCCCCN1c2ccccc2Sc2ccc(OCC(=O)N[C@@H](CCCNC(=N)N)C(=O)N[C@@H](CCCNC(=N)N)C(N)=O)cc21
0.19

Next up: CC(C)=CCOc1ccc2c(c1)N(CCCCN)c1ccccc1S2
0.80

Next up: CN[C@H](CC(C)C)C(=O)N[C@H]1C(=O)N[C@@H](CC(N)=O)C(=O)N[C@H]2C(=O)N[C@H]3C(=O)N[C@H](C(=O)N[C@H](C(=O)O)c4cc(O)cc(O)c4-c4cc3ccc4O)[C@H](O)c3ccc(c(Cl)c3)Oc3cc2cc(c3O[C@@H]2O[C@H](CO)[C@@H](O)[C@H](O)[C@H]2O[C@H]2C[C@](C)(N)[C@H](O)[C@H](C)O2)Oc2ccc(cc2Cl)[C@H]1O
-0.11

Next up: CCCCCOc1ccc2c(c1)N(CCCCCCCCN(CC)CC)c1ccccc1S2
0.49

Next up: CCCCCCCCCN1c2ccccc2Sc2ccc(OCC(=O)N[C@@H](CCCNC(=N)N)C(=O)N[C@@H](CCCNC(=N)N)C(=O)N[C@@H](CCCNC(=N)N)C(=O)OC)cc21
0.19

Next up: CCCCCOc1ccc2c(c1)N(CCCN)c1ccccc1S2
0.49

Next up: CCCCCOc1ccc2c(c1)N(CCCCCCN(CC)CC)c1ccccc1S2
0.49

Next up: CCCCCCCN1c2ccccc2Sc2ccc(OCC(=O)N[C@@H](CCCNC(=N)N)C(=O)N[C@@H](CCCNC(=N)N)C(=O)OC)cc21
0.19

Next up: CCCCCOc1ccc2c(c1)N(CCCNC(=N)N)c1ccccc1S2
0.19

Next up: CCCCCOc1ccc2c(c1)N(CCCCCCCCNC(=N)N)c1ccccc1S2
0.19

Next up: CCCCCOc1ccc2c(c1)N(CCCCCCN)c1ccccc1S2
0.49

Next up: CCCCCN1c2ccccc2Sc2ccc(OCC(=O)N[C@@H](CCCNC(=N)N)C(=O)N[C@@H](CCCNC(=N)N)C(=O)OC)cc21
0.80

Next up: CCCCCOc1ccc2c(c1)N(CCCCNC(=N)N)c1ccccc1S2
0.19

Next up: CCCCCN1c2ccccc2Sc2ccc(OCC(=O)N[C@@H](CCCNC(=N)N)C(=O)OC)cc21
1.10

Next up: CCCCCCCN1c2ccccc2Sc2ccc(OCC(=O)N[C@@H](CCCNC(=N)N)C(=O)N[C@@H](CCCNC(=N)N)C(N)=O)cc21
0.19

Next up: CCCCCCCOc1ccc2c(c1)N(CCCCNC(=N)N)c1ccccc1S2
0.49

The reported measurements were obtained from ChEMBL document CHEMBL5634090.
